# Tested system: Arginase-1 (Homo sapiens, UniProt P05089)
# Sequence (P05089 whole entry): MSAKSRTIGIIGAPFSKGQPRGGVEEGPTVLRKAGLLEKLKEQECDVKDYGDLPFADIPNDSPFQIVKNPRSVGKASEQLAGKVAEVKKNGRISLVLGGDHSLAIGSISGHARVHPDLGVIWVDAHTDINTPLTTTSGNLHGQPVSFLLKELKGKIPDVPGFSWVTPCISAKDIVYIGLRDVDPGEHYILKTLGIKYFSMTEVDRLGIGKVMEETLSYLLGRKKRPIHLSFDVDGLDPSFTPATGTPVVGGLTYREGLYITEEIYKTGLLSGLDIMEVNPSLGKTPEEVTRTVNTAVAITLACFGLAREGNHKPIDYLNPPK
# Protocol: Inhibition of ARG1 (unknown origin)
Result type: IC50 (nM)
Give bare numbers, in nM.

// for each compound in input: emit IC50
1. CN[C@@H]1C[C@@H]2C[C@@](N)(C(=O)O)[C@@H](CCCB(O)O)[C@@H]2[C@H]1F
2. O=C(O)[C@@]1(CCCCB(O)O)CCCN1

1: 6.9; 2: 14.7
